- target entity: rat kappa opioid receptor (rKOR) (Rattus norvegicus)
- Construct: expressed in transfected cells; host or cells: HEK-293T, transient (PEI), with BRET sensor cDNAs
- Sequence (P34975 whole entry): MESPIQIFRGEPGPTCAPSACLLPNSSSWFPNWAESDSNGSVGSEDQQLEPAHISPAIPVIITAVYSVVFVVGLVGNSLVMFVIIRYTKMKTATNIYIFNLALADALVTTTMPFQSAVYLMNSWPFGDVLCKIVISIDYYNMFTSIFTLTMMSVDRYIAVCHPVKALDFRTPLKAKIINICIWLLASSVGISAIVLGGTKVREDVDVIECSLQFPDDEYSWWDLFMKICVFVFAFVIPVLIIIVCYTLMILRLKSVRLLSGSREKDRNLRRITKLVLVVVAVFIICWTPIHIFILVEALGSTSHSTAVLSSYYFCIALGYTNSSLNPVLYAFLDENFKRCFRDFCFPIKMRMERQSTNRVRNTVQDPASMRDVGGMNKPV
- protocol summary: BRET assay, arrestin recruitment, rKOR
- Format: cell-based
- assay setup: BRET
Recorded measurements of pEC50, one per entry
Quick note: pEC50 means taking -log10 of the concentration in moles per liter.

Here's what some known entries look like.
O=C(N[C@@H]1CC[C@@]2(O)[C@H]3Cc4ccc(O)c5c4[C@@]2(CCN3CC2CC2)[C@H]1O5)c1cccc(I)c1 [IBNtxA, reference compound]
8.91
O=C(N[C@@H]1CCC2C3Cc4ccc(O)c5c4C2(CCN3CC2CC2)C1O5)c1cccc(I)c1 (stereo partly shown)
8.84
O=C(N[C@@H]1C=CC2[C@H]3Cc4ccc(O)c5c4[C@@]2(CCN3CC2CC2)[C@H]1O5)c1cccc(I)c1 (stereo partly shown) [MP1104, reference compound]
8.94

# next compound below
// O=C(N[C@@H]1CC[C@@]2(O)C3Cc4ccc(O)cc4[C@@]2(CCN3CC2CC2)C1)c1cccc(I)c1 : pEC50 value = 7.25

Attribution: patent US11613547B2
